Hello, the source for this data is patent US20230365662A1, in case you need it.

Reported values of Ratio OD(Variant)/OD(WT) for individual entries
molecular target: HRgpA-6H (Porphyromonas gingivalis) (UniProt P28784); experiment: ELISA on coated HRgpA-6H

Previously resolved entries follow.
binder: KB001 mouse Fab FASEBA VH D58S (Fab, V domains shown) VH: EVQLKQSGPGLVAPSQSLSITCTVSGFSLSIYSVHWVRQPPGKGLEWLGMIWGGGSSSYNSALKSRLSISKDNSKSQVFLKMNSLQTDDTAMYYCARNGNFYAMDYWGQGTSVTVSS VL: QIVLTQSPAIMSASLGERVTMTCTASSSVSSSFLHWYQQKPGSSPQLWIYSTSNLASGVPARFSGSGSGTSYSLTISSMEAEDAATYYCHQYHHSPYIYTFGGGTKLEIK
Ratio OD(Variant)/OD(WT): 0.817
--
binder: KB001 mouse Fab FASEBA VH S65V (Fab, V domains shown) VH: EVQLKQSGPGLVAPSQSLSITCTVSGFSLSIYSVHWVRQPPGKGLEWLGMIWGGGSSDYNSALKVRLSISKDNSKSQVFLKMNSLQTDDTAMYYCARNGNFYAMDYWGQGTSVTVSS VL: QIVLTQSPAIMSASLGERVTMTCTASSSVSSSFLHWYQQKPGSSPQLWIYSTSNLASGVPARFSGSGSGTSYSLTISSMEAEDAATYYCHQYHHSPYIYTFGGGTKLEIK
Ratio OD(Variant)/OD(WT): 1.05

Now let's try a different one.
What value of Ratio OD(Variant)/OD(WT) has been recorded for this entry: KB001 mouse Fab FASEBA VH Y106K (Fab, V domains shown) VH: EVQLKQSGPGLVAPSQSLSITCTVSGFSLSIYSVHWVRQPPGKGLEWLGMIWGGGSSDYNSALKSRLSISKDNSKSQVFLKMNSLQTDDTAMYYCARNGNFYAMDKWGQGTSVTVSS VL: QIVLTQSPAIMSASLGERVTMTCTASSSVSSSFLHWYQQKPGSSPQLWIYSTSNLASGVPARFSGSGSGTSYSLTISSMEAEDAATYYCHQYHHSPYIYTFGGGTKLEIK 1.05
